// data source = the NIST ThermoML archive (doi:10.1021/je050343i)

assay: activity coefficient (dimensionless); of the first substance listed, at infinite dilution; xn = mol fraction of the nth substance listed; conditions: 269.95 K; Liquid; Chromatography; x1 = 0
Measured Endpoint: activity coefficient
Field format: numeric only.

Return the recorded activity coefficient value; entry: CCC [propane] + C=CC(C)(C)O
2.97

Specify activity coefficient for C=CC=C [1,3-butadiene] + C=CC(C)(C)O and stop.
2.36

Note down activity coefficient recorded for COC [dimethyl ether] + C=C(C)CCO
1.23

Let me know recorded activity coefficient for C=CC [propene] + C=CC(C)(C)O , thanks.
2.38

Provide one value: measured activity coefficient of C=C(C)C [2-methylpropene] + C=CC(C)(C)O
2.61

Answer with the recorded activity coefficient for the molecule listed here: C=CCC [1-butene] + C=CC(C)(C)O
2.65

Write down activity coefficient measured for item CCCl [chloroethane] + C=C(C)CCO
2.35

Return activity coefficient for the following molecule: CCCC [butane] + C=CC(C)(C)O
3.22

Output activity coefficient of CC(C)C [2-methylpropane] + C=CC(C)(C)O
3.42

Answer with reported activity coefficient of CC(F)F [1,1-difluoroethane] + C=C(C)CCO
4.53

Answer with reported activity coefficient of C/C=C/C [(E)-2-butene] + C=CC(C)(C)O
2.62

Give the measured activity coefficient for C/C=C\C [(Z)-2-butene] + C=C(C)CCO
3.2

###

assay: activity coefficient (dimensionless); of the first substance listed, at infinite dilution; xn = mol fraction of the nth substance listed; settings: 269.96 K; Liquid; Chromatography; x1 = 0
Measured Endpoint: activity coefficient
Give the figure by itself; no unit, no explanation.

Dear colleague, please send me the reported activity coefficient for C/C=C\C [(Z)-2-butene] + C=CC(C)(C)O when you can.
2.48

For the compound CC(F)F [1,1-difluoroethane] + C=CC(C)(C)O , give its measured activity coefficient value.
3.99

Look up activity coefficient of COC [dimethyl ether] + C=CC(C)(C)O and report it.
0.67

Tell me its activity coefficient given CCCl [chloroethane] + C=CC(C)(C)O as the entry.
2.16

###

test: activity coefficient (dimensionless); of the first substance listed, at infinite dilution; xn = mol fraction of the nth substance listed; conditions: 289.9 K; Liquid; Chromatography; x1 = 0
Measured Endpoint: activity coefficient

Look up activity coefficient of C/C=C\C [(Z)-2-butene] + C=C(C)CCO and report it.
3.08

Hello, please tell me recorded activity coefficient for this one: CCCl [chloroethane] + C=C(C)CCO
2.32

Identify activity coefficient associated with the compound COC [dimethyl ether] + C=C(C)CCO
1.2

Fill in activity coefficient for record CC(F)F [1,1-difluoroethane] + C=C(C)CCO
4.12

###

Consider the following compounds; for each one, report its activity coefficient.
assay: activity coefficient (dimensionless); of the first substance listed, at infinite dilution; xn = mol fraction of the nth substance listed; details: 330 K; Liquid; Chromatography; x1 = 0
Give the figure only, with no unit attached.

Query activity coefficient for CC(F)F [1,1-difluoroethane] + C=C(C)CCO
3.5

Determine from records and report activity coefficient for C/C=C\C [(Z)-2-butene] + C=C(C)CCO
2.77

Tell me activity coefficient reported for COC [dimethyl ether] + C=CC(C)(C)O
0.74

Respond only with activity coefficient recorded for CCCC [butane] + C=CC(C)(C)O
2.65

Supply measured activity coefficient of C=CC=C [1,3-butadiene] + C=CC(C)(C)O in your reply.
1.88

Give reported activity coefficient value for CC(F)F [1,1-difluoroethane] + C=CC(C)(C)O
2.47

Give reported activity coefficient value for C=CC [propene] + C=C(C)CCO
2.8

Supply measured activity coefficient of CCCl [chloroethane] + C=C(C)CCO in your reply.
1.99

Please look at this compound and report its activity coefficient: CC(C)C [2-methylpropane] + C=CC(C)(C)O
2.83

Identify activity coefficient associated with the compound C=CC=C [1,3-butadiene] + C=C(C)CCO
2.45

Could you please provide reported activity coefficient for CCCl [chloroethane] + C=CC(C)(C)O ? Thanks!
1.56
